Provenance of the data: PubChem BioAssay

# assay notes: reversal of MRP1-mediated doxorubicin resistance, pilot screen, H69AR cells, doxorubicin co-treatment (AID 601)
# test conditions: H69AR cells, CellTiter-Glo, 72 h; compound alone cytotoxicity; at 10 µM
outcome measure: viability (%)
Numbers only, in %.

Solved cases (5 shown):
{"columns": ["molecule", "viability, %"],
 "data": [
  ["Cc1cc(C)nc(N2CCC(C(=O)Nc3ccc(Oc4ccccc4)cc3)CC2)n1", 88.9],
  ["CCCn1c(SCC(=O)NC(=O)NCc2ccco2)n[nH]c1=O", 96.6],
  ["COc1ccc(C(C(C(=O)c2cccs2)N2CCOCC2)N2CCOCC2)cc1OC (stereo not given)", 102],
  ["Cc1occc1C(=O)Nc1cccnc1", 97.7],
  ["CC(=O)c1c(C)[nH]c(C(=O)NCc2cccs2)c1C", 94.9]
]}

Quick batch: viability for everything below.
1. COc1ccc(S(=O)(=O)NC(CC(=O)NCc2ccco2)c2ccco2)cc1 (stereo not given)
2. Cc1cc(C)n2nc(SCC(=O)N(C)Cc3ccccc3)nc2n1
3. Cn1nnc2c(sc3nc(N4CCOCC4)c4c(c32)CCCC4)c1=O
4. COc1cccc2c(=O)cc(C)n(CC(=O)Nc3ccc(C)c(C)c3)c12

a:
103
81.7
81.6
95.5

---

I'd appreciate it if you could supply viability values for the items below.
# assay notes: reversal of MRP1-mediated doxorubicin resistance, pilot screen, H69AR cells, doxorubicin co-treatment (AID 601)
# test conditions: H69AR cells + 2 uM doxorubicin, CellTiter-Glo, 72 h; measured here: viability with 2 uM doxorubicin; at 10 µM; stronger effect = lower value
Numbers only, in %.

Required: viability, one value per compound below.
1. Cc1ccc(-c2nc3cc(N)ccc3o2)cc1
2. CC(Cc1ccc(O)c(O)c1)C(C)Cc1ccc(O)c(O)c1 (stereo not drawn)

a:
81.7
79.1

q: Form field: reported viability of CCOC(=O)C1CCN(C(=O)Nc2ccc3nc(C)c(C)nc3c2)CC1
a: 79.6

---

# assay notes: reversal of MRP1-mediated doxorubicin resistance, pilot screen, H69AR cells, doxorubicin co-treatment (AID 601)
# test conditions: H69AR cells + 2 uM doxorubicin, CellTiter-Glo, 72 h; at 10 µM; stronger effect = higher value
Provide the reported differential viability (reversal) of each item.
Answers are plain numbers, in %.

{"columns": ["compound", "differential viability (reversal) / %"],
 "data": [
  ["CCCSC1=C(C#N)C(c2ccccc2OCC)CC(=O)N1 (stereo unspecified)", -3.18],
  ["CCOc1ccc(NC(=O)Cn2nnc(-c3ccccc3F)n2)cc1", 7.41]
]}

Batch: differential viability (reversal) for all items listed.
1. Cc1cc(C)n(C(C)n2nc(C)cc2C)n1
2. CCCCn1c(SCc2ccc(Cl)cc2)nc2c1c(=O)[nH]c(=O)n2C
3. Cc1c(OCC(F)(F)F)ccnc1CS(=O)c1nc2ccccc2[nH]1 (stereo unspecified)
4. COCCNC(=O)CN1CCC(NC(=O)Nc2ccc(C(F)(F)F)cc2)CC1
5. O=C(Nc1ccccc1Cl)c1c(F)c(F)c(F)c(F)c1F
6. Cc1sc2nc(SCC(=O)N3CCN(CCO)CC3)n(-c3ccccc3)c(=O)c2c1C
7. CN(C)C(CNC(=O)Nc1cccc(Cl)c1)c1cccnc1 (stereo unspecified)
8. Cc1c(C=NCCOCc2ccccc2)cnn1C

a:
9.01
6.03
4.31
8.66
-7.56
0.935
8.96
14

Okay, here is my list. What is differential viability (reversal) for each of these?
1. Cc1cc(C(=O)Nc2c(F)cc(F)cc2Br)no1
2. Brc1c(NC2=NCCN2)ccc2nccnc12
3. Cc1cc(O)c(-c2cc(C(=O)Nc3ccc(S(=O)(=O)N4CCOCC4)cc3)[nH]n2)cc1C
4. CCn1cc(C(=O)NC2CCc3ccccc32)c(=O)c2ccc(C)nc21 (stereo unspecified)

a:
-0.16
-7.09
-21.6
-10.2

For each of the compounds below, note its differential viability (reversal).
1. Brc1ccc(C2=Nn3c(nnc3-c3ccncc3)SC2)cc1
2. Cc1cccnc1NC(=O)CCCN1C(=O)c2ccccc2C1=O
3. COc1cccc(CN(C(=O)c2cc3ccccc3oc2=O)C2CC2)c1
4. CCOC(=O)N1CCC(NC(=O)Cn2ncc3c4ccccc4n(C)c3c2=O)CC1
5. CCOC(=O)c1ccccc1NC1c2ccccc2C(=O)N1C1CCN(C(=O)OCC)CC1 (stereo unspecified)

a:
1. -14.3
2. 4.67
3. 5.67
4. -7.6
5. 37.6

Give differential viability (reversal) for each of the items listed below.
1. Cc1c(NC(=O)Cn2nc(C(=O)O)c3ccccc3c2=O)c(=O)n(-c2ccccc2)n1C
2. COC(=O)c1sc(S(=O)(=O)N2CCN(c3ccccc3)CC2)c(C(=O)OC)c1C
3. C=CCOC(=O)C1=C(C)NC(=O)NC1c1cn(-c2ccccc2)nc1-c1cccs1 (stereo unspecified)
4. CCOC(=O)N1CCC(NC(=O)c2ccc3c(c2)sc2nc(-c4cccc(OC)c4)cn23)CC1
5. O=C(O)CCc1ccc(-c2cccs2)n1NC(=O)c1ccccc1Br
6. CC(Sc1nnnn1C)C(=O)Nc1ccc(Oc2ccccc2)cc1 (stereo unspecified)
7. CC1(C)CC(=O)c2sc(NS(C)(=O)=O)nc2C1

a:
1: 0.425; 2: -1.87; 3: -3.71; 4: 8.43; 5: 16; 6: 11; 7: 12.7

Please supply differential viability (reversal) for each of the following items, keeping them in order.
1. COc1ccc(OC)c(NC(=O)CSc2nnc(-c3ccco3)n2-c2ccccc2)c1
2. CCC(C)c1ccc(NC(=O)C2CC2)cc1 (stereo unspecified)
3. COc1ccc(CN(C(=O)CSc2nnc(-c3ccccc3F)o2)c2ccc(F)cc2)cc1
4. CC(=O)OCC[N+](C)(C)C
5. Cc1ccc(C)c(S(=O)(=O)C(C#N)c2nc3ccccc3nc2N2CC(C)OC(C)C2)c1 (stereo unspecified)

a:
[5.04, 9.41, 2.2, -8.23, -10.3]

Dear colleague, could you please provide differential viability (reversal) for the compounds listed below?
1. N#Cc1cc2ccccc2nc1SCC(=O)Nc1ccccc1N1CCOCC1
2. CCOC(=O)C1C2C=CC3(CN(Cc4ccco4)C(=O)C13)O2 (stereo unspecified)
3. CN1[C@@H](CC(=O)c2ccccc2)CCC[C@H]1C[C@H](O)c1ccccc1
4. CCC(C)(C)n1nnnc1C(c1ccccc1OC)N1CCSCC1 (stereo unspecified)
5. O=c1c[n+]([O-])c2ccccc2n1OCc1ccccn1
6. CC(C)(C)OC(=O)N1CCOCCOCCN(C(=O)OC(C)(C)C)CCOCCOCC1

a:
1. -10.8
2. 6.86
3. -4.62
4. 7.71
5. 12.1
6. -2.94

Batch request: differential viability (reversal) for each of the following compounds.
1. CC1(C)Cc2c(sc3c2C2=NCCN2C=N3)CS1
2. CCC(C(=O)Nc1ncccn1)(C(F)(F)F)C(F)(F)F
3. O=C(c1ccncc1)N1CCN(C(=O)c2cccs2)CC1
4. O=C(c1cccnc1)N1CCN(Cc2ccc3c(c2)OCO3)CC1

a:
[5.41, 8.62, 5.42, 14.4]
